Test system: SF-268 CNS
Experiment: NCI tumour cell line growth inhibition, 48 h
quantity: TGI

Known results for compounds:
structure=Cc1nc(-c2cn3c(n2)-c2ccc(-c4cnn(C(C)(C)C(N)=O)c4)cc2OCC3)n(C(C)C)n1 quantity=TGI obs_value="> 100 µM"
structure=CC(C)C(=O)Nc1cc(C(F)(F)F)ccc1[N+](=O)[O-] quantity=TGI obs_value="> 100 µM"
structure=N#CC(=N)c1ncn(-c2ccc(N)cc2)c1N quantity=TGI obs_value="> 100 µM"
structure=COc1cc(-c2cc(O)c(-c3ccc4ccccc4n3)c(=O)[nH]2)cc(OC)c1OC quantity=TGI obs_value="> 80.5 µM"

Here is the next item to consider.
Query: Give SF-268 CNS TGI for the following compound: `Cc1ccc(S(=O)(=O)Oc2nc3ccccc3nc2OS(=O)(=O)c2ccc(C)cc2)cc1`
Reply: > 100 µM

---

Test system: HS 578T breast
Assay: NCI tumour cell line growth inhibition, 48 h; in the data active means GI50 below about 0.43 µM; inactive means the rest
Hello, when you answer, please use one of the following outcomes: class 1 for active, class 0 for inactive

Observe how each entry below is paired with its result.
compound=Cc1csc(/C=C/C(=O)c2nnn(-c3ccnc4c(C(F)(F)F)cccc34)c2C)c1 class_assignment="class 0"
compound=CNC(=O)c1ccccc1Nc1nc(Nc2cc(OC)c(OC)c(OC)c2)ncc1Br class_assignment="class 1"
compound=COc1cc(NCCCN=C(N)NC(N)=NC(C)C)c2ncccc2c1 class_assignment="class 0"
compound=O=C(Cc1ccc(F)c(F)c1)Nc1cc(C2(C(F)(F)F)CC2)nn1Cc1ccccc1 class_assignment="class 0"
compound=CC(C)=CCC/C(C)=C/CC/C(C)=C/CSc1ccccc1C(=O)O class_assignment="class 0"
compound=Nc1c(C(=O)Nc2cccc(F)c2)sc2nc3c(cc12)C(=O)CCC3 class_assignment="class 0"
compound="COc1cccc(NC(=O)c2sc3nc(C)c(C(O)c4ccccc4)cc3c2N)c1 (stereo not given)" class_assignment="class 1"
compound=O=C(NCCCO)c1cc(Cl)ccc1O class_assignment="class 0"
compound=O=C1C=CC(=Nc2cc(Br)c(O)c(Br)c2)C=C1 class_assignment="class 0"

Next up:
Query: State the result this test recorded for `S=C(Nc1ccc(-c2nc3ccccc3[nH]2)cc1)Nc1ccc(-c2nc3ccccc3[nH]2)cc1` .
Reply: class 0

---

System: HL-60(TB) leukemia
Assay: NCI tumour cell line growth inhibition, 48 h
quantity: TGI

Consider the worked cases shown below.
compound="CC(=O)OCC1OC(Nn2c(=O)[nH]c3ccccc3c2=O)C(OC(C)=O)C(OC(C)=O)C1OC(C)=O (stereo unspecified)" quantity=TGI obs_value="> 100 µM"
compound="CC1CCCC(C(O)CC2CC(=O)NC(=O)C2)C1O (stereo unspecified)" quantity=TGI obs_value="> 100 µM"
compound=CC(=O)OC(C)(C)/C(C)=C/C(=O)O[C@H]1C(=O)O[C@@H]2C[C@H]3[C@H](C)C(=O)C(O[C@@H]4O[C@H](CO)[C@@H](O)[C@H](O)[C@H]4O)=C[C@]3(C)[C@H]3[C@@H](O)[C@H](O)[C@@]4(C(=O)O)OC[C@]32[C@@H]14 quantity=TGI obs_value="> 100 µM"
compound="CN(C)C(c1ccccc1)C1COC2Cc3ccccc3C1O2 (stereo unspecified)" quantity=TGI obs_value="> 100 µM"
compound=CCC(=C/[C@H](C)C/C=C/C(C)=C/[C@@H](C)C(=O)[C@@H](C)[C@H](O)[C@@H](C)CC)/C=C/[C@@H]1OC(=O)C=C[C@H]1C quantity=TGI obs_value="< 0.01 µM"
compound="COc1cc(NCCC2CCCCN2)c2ncccc2c1 (stereo unspecified)" quantity=TGI obs_value="19.1 µM"
compound="Cc1cc(Cc2cc(C)c(NC(=O)C(=O)C3CCC4=C(SC5C=CC=CC5N4)C3=O)c(C(C)C)c2)cc(C(C)C)c1NC(=O)C(=O)C1CCC2=C(SC3C=CC=CC3N2)C1=O (stereo unspecified)" quantity=TGI obs_value="> 100 µM"
compound="CCN(CC)c1ccc(C(O)C2=CC(=O)c3ccccc3C2=O)cc1 (stereo unspecified)" quantity=TGI obs_value="> 100 µM"
compound=CN(C)CCn1c(=O)c2ccc(NCCN3CCNCC3)c3c(=O)c4ccccc4n(c1=O)c23 quantity=TGI obs_value="18.4 µM"
compound="NC(=O)Cc1nc2c(N)ncnc2n1C1OC(CO)C(O)C1O (stereo unspecified)" quantity=TGI obs_value="> 100 µM"

Query: // Input: `O=C1C(=O)N(c2cccc(C(F)(F)F)c2)C(=S)N1c1ccccc1` . Output its TGI only.
Reply: 84.5 µM

Query: Quote TGI reported for `O=C(c1ccccc1)c1ccc2[nH]c(-c3c(Cl)c(Cl)c(Cl)c(Cl)c3C(=O)N/N=C/c3cccc(Oc4ccccc4)c3)nc2c1` please.
Reply: > 100 µM

Query: Note TGI for the compound shown: `O=c1ccn(COC(COCc2ccccc2)COCc2ccccc2)c(=O)[nH]1`
Reply: > 100 µM

Query: Write down TGI measured for item `CCOC(=O)C1(C(=O)OCC)OC(C)=NC1(C(=O)OC)C(=O)OC`
Reply: > 100 µM

Query: State its TGI for this compound: CN1C(=O)C2(C=CC(O)CC2)c2ccccc21 (stereo unspecified)
Reply: > 100 µM

Numbers sourced from PubChem BioAssay (NCI).
